Taken from the RNAGym collection of RNA variant scans (doi:10.1093/molbev/msab373).

B1: Azoarcus group I ribozyme (parent)
chain: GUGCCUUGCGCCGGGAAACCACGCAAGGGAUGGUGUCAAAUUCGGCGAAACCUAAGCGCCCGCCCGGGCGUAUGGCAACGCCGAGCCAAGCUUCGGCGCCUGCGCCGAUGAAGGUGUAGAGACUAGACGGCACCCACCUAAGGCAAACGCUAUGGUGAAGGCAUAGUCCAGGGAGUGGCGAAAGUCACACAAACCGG

variants of: B1; test: reverse-splicing fitness (ratio to wild type); higher = more active; in vitro selection; Mg2+ level not given
reverse-splicing fitness vs 0.01: at or above is MET, below is NOT MET.

query: Given the entry C82A A111U A120G A145U C169A , answer whether its reverse-splicing fitness meets or surpasses 0.01.
result: NOT MET

query: Given the entry C82G A111C A145U C150G C169U U176G , answer whether its reverse-splicing fitness meets or surpasses 0.01.
result: NOT MET

query: Given the entry A111U A145U C169G U176A , answer whether its reverse-splicing fitness meets or surpasses 0.01.
result: MET

query: Given the entry A111G A120C A145C U176C , answer whether its reverse-splicing fitness meets or surpasses 0.01.
result: MET

query: Given the entry A120C C150A C169U U176G , answer whether its reverse-splicing fitness meets or surpasses 0.01.
result: NOT MET

query: Given the entry A111U A120C A145G C150U U176C , answer whether its reverse-splicing fitness meets or surpasses 0.01.
result: MET

query: Given the entry C82G A111C A145G C169G , answer whether its reverse-splicing fitness meets or surpasses 0.01.
result: NOT MET

query: Given the entry A111G C169G U176G , answer whether its reverse-splicing fitness meets or surpasses 0.01.
result: NOT MET

query: Given the entry C82G A111G A145G C150U C169A U176C , answer whether its reverse-splicing fitness meets or surpasses 0.01.
result: MET

query: Given the entry A111G A120C A145G C150G U176C , answer whether its reverse-splicing fitness meets or surpasses 0.01.
result: MET

query: Given the entry A120G A145C C169A U176G , answer whether its reverse-splicing fitness meets or surpasses 0.01.
result: NOT MET

query: Given the entry C82A A111G A120G A145C C150G U176G , answer whether its reverse-splicing fitness meets or surpasses 0.01.
result: NOT MET

query: Given the entry C82U A111G A120U A145G C169U U176A , answer whether its reverse-splicing fitness meets or surpasses 0.01.
result: NOT MET

query: Given the entry C82A A111U A120C A145C C150A C169G U176C , answer whether its reverse-splicing fitness meets or surpasses 0.01.
result: MET

query: Given the entry A111C A145U U176G , answer whether its reverse-splicing fitness meets or surpasses 0.01.
result: MET

query: Given the entry A111U A120U A145G C150G C169A U176G , answer whether its reverse-splicing fitness meets or surpasses 0.01.
result: NOT MET

query: Given the entry C82U A145G C150A C169G U176A , answer whether its reverse-splicing fitness meets or surpasses 0.01.
result: MET

query: Given the entry C82A A111C A120U C150A C169G U176G , answer whether its reverse-splicing fitness meets or surpasses 0.01.
result: NOT MET

query: Given the entry C82G A111U C150A C169A U176A , answer whether its reverse-splicing fitness meets or surpasses 0.01.
result: MET

query: Given the entry C82A A111G A145U , answer whether its reverse-splicing fitness meets or surpasses 0.01.
result: MET

query: Given the entry C82G A111G A120C A145G U176G , answer whether its reverse-splicing fitness meets or surpasses 0.01.
result: NOT MET

query: Given the entry A111G A120G A145G C169A U176C , answer whether its reverse-splicing fitness meets or surpasses 0.01.
result: MET

query: Given the entry C82A A111U A120G A145G C169A U176C , answer whether its reverse-splicing fitness meets or surpasses 0.01.
result: MET

query: Given the entry C82G A111G A120G , answer whether its reverse-splicing fitness meets or surpasses 0.01.
result: MET

query: Given the entry A111C A120U A145U C150U , answer whether its reverse-splicing fitness meets or surpasses 0.01.
result: MET

query: Given the entry A111U A120U A145U C150U C169A U176C , answer whether its reverse-splicing fitness meets or surpasses 0.01.
result: NOT MET

query: Given the entry C82G A111G A120G A145G U176A , answer whether its reverse-splicing fitness meets or surpasses 0.01.
result: MET

query: Given the entry C82A A120C C150U C169U , answer whether its reverse-splicing fitness meets or surpasses 0.01.
result: MET

query: Given the entry C82U A111G A120C A145C , answer whether its reverse-splicing fitness meets or surpasses 0.01.
result: MET

query: Given the entry C82G A111C A120G A145U C150A C169U U176G , answer whether its reverse-splicing fitness meets or surpasses 0.01.
result: NOT MET

query: Given the entry C82U A120U C169A , answer whether its reverse-splicing fitness meets or surpasses 0.01.
result: NOT MET

query: Given the entry C82U A111G A120G C169A U176A , answer whether its reverse-splicing fitness meets or surpasses 0.01.
result: MET

query: Given the entry C82A A111C A120U C150A C169G U176C , answer whether its reverse-splicing fitness meets or surpasses 0.01.
result: NOT MET

query: Given the entry C82A A111U C150A C169A , answer whether its reverse-splicing fitness meets or surpasses 0.01.
result: MET

query: Given the entry C82A A111U A120C A145G C150G C169G U176C , answer whether its reverse-splicing fitness meets or surpasses 0.01.
result: MET

query: Given the entry C82G A111U A120U A145G , answer whether its reverse-splicing fitness meets or surpasses 0.01.
result: MET

query: Given the entry C82G A111G A120G C150G C169U U176G , answer whether its reverse-splicing fitness meets or surpasses 0.01.
result: NOT MET

query: Given the entry C82A A111C A120C C150A , answer whether its reverse-splicing fitness meets or surpasses 0.01.
result: MET

query: Given the entry A111C C150A C169A , answer whether its reverse-splicing fitness meets or surpasses 0.01.
result: MET

query: Given the entry C82U A111U A120U C169G U176G , answer whether its reverse-splicing fitness meets or surpasses 0.01.
result: NOT MET

query: Given the entry C82U A120C A145C C150G C169A U176C , answer whether its reverse-splicing fitness meets or surpasses 0.01.
result: NOT MET

query: Given the entry C82U A120U A145C C169G , answer whether its reverse-splicing fitness meets or surpasses 0.01.
result: NOT MET

query: Given the entry C82G A111C C150G U176C , answer whether its reverse-splicing fitness meets or surpasses 0.01.
result: MET

query: Given the entry C82G A111G A120G A145C C169A , answer whether its reverse-splicing fitness meets or surpasses 0.01.
result: MET

query: Given the entry C82A A111G A120C C150A C169U U176A , answer whether its reverse-splicing fitness meets or surpasses 0.01.
result: MET

query: Given the entry A111G A120C A145U C150A C169G , answer whether its reverse-splicing fitness meets or surpasses 0.01.
result: NOT MET

query: Given the entry C82A C150A C169G U176G , answer whether its reverse-splicing fitness meets or surpasses 0.01.
result: NOT MET

query: Given the entry A111U C150G U176G , answer whether its reverse-splicing fitness meets or surpasses 0.01.
result: MET

query: Given the entry C82U A111G A120G A145G C150G C169G U176A , answer whether its reverse-splicing fitness meets or surpasses 0.01.
result: NOT MET

query: Given the entry C82G A120G A145C C150U C169A U176C , answer whether its reverse-splicing fitness meets or surpasses 0.01.
result: NOT MET

query: Given the entry C82U A120G A145U C150U C169G U176C , answer whether its reverse-splicing fitness meets or surpasses 0.01.
result: MET

query: Given the entry C82A A111G A120G A145C C150G U176A , answer whether its reverse-splicing fitness meets or surpasses 0.01.
result: NOT MET

query: Given the entry C82A A120C C150G C169A , answer whether its reverse-splicing fitness meets or surpasses 0.01.
result: MET

query: Given the entry A111U A120G A145G U176G , answer whether its reverse-splicing fitness meets or surpasses 0.01.
result: NOT MET

query: Given the entry C82A A111U A120C A145U C150G U176C , answer whether its reverse-splicing fitness meets or surpasses 0.01.
result: NOT MET

query: Given the entry A111C A120U A145G C150G U176C , answer whether its reverse-splicing fitness meets or surpasses 0.01.
result: MET

query: Given the entry A111G A120C A145U , answer whether its reverse-splicing fitness meets or surpasses 0.01.
result: MET

query: Given the entry C82G A120C A145C C150A C169A U176A , answer whether its reverse-splicing fitness meets or surpasses 0.01.
result: MET

query: Given the entry C82A A111G A120C C150A C169A U176C , answer whether its reverse-splicing fitness meets or surpasses 0.01.
result: MET

query: Given the entry C82A A120G A145U C150A U176G , answer whether its reverse-splicing fitness meets or surpasses 0.01.
result: NOT MET

query: Given the entry C82U A120C A145G C169U U176C , answer whether its reverse-splicing fitness meets or surpasses 0.01.
result: MET

query: Given the entry A111U A120G A145U C169A U176G , answer whether its reverse-splicing fitness meets or surpasses 0.01.
result: NOT MET

query: Given the entry C82G A120U A145G C150G C169U U176C , answer whether its reverse-splicing fitness meets or surpasses 0.01.
result: NOT MET

query: Given the entry C82U A111U A120G C169U U176C , answer whether its reverse-splicing fitness meets or surpasses 0.01.
result: MET

query: Given the entry C82A A111C A120U A145G C150G C169A U176C , answer whether its reverse-splicing fitness meets or surpasses 0.01.
result: NOT MET

query: Given the entry C82G A111C A145U C150A C169A U176G , answer whether its reverse-splicing fitness meets or surpasses 0.01.
result: NOT MET

query: Given the entry C82A A111C A145C C150G C169U U176G , answer whether its reverse-splicing fitness meets or surpasses 0.01.
result: NOT MET

query: Given the entry C82G C150U C169A U176C , answer whether its reverse-splicing fitness meets or surpasses 0.01.
result: MET

query: Given the entry A111G A120C C150G C169A U176C , answer whether its reverse-splicing fitness meets or surpasses 0.01.
result: NOT MET

query: Given the entry C82G A111G U176C , answer whether its reverse-splicing fitness meets or surpasses 0.01.
result: MET

query: Given the entry C82U A120C A145G C169U U176G , answer whether its reverse-splicing fitness meets or surpasses 0.01.
result: NOT MET

query: Given the entry C82A A111G A145G C150A C169U U176C , answer whether its reverse-splicing fitness meets or surpasses 0.01.
result: MET

query: Given the entry A111G A120U A145C C150A C169U U176C , answer whether its reverse-splicing fitness meets or surpasses 0.01.
result: NOT MET

query: Given the entry C82A A111C A120U A145U C150G C169G U176C , answer whether its reverse-splicing fitness meets or surpasses 0.01.
result: NOT MET

query: Given the entry C82G A111C C169A , answer whether its reverse-splicing fitness meets or surpasses 0.01.
result: NOT MET

query: Given the entry C82A A111U A120U A145G C150A C169G U176A , answer whether its reverse-splicing fitness meets or surpasses 0.01.
result: MET

query: Given the entry C82A A120C A145U C150A C169U , answer whether its reverse-splicing fitness meets or surpasses 0.01.
result: NOT MET

query: Given the entry C82G A111U A120C A145G C150A U176C , answer whether its reverse-splicing fitness meets or surpasses 0.01.
result: MET

query: Given the entry C82G A111U A120U A145U C150A C169U U176G , answer whether its reverse-splicing fitness meets or surpasses 0.01.
result: NOT MET

query: Given the entry A111G A120G A145C C169A U176G , answer whether its reverse-splicing fitness meets or surpasses 0.01.
result: NOT MET

query: Given the entry C82A A111U A120C A145C U176G , answer whether its reverse-splicing fitness meets or surpasses 0.01.
result: NOT MET

query: Given the entry C82A A145G C150A C169U , answer whether its reverse-splicing fitness meets or surpasses 0.01.
result: MET

query: Given the entry C82U A111U A120G A145G C150A , answer whether its reverse-splicing fitness meets or surpasses 0.01.
result: NOT MET

query: Given the entry A111C A120C A145C C169U U176C , answer whether its reverse-splicing fitness meets or surpasses 0.01.
result: MET
